Measurement Notes: In vitro inhibition of calcium phosphate crystallization in human plasma (spectrophotometric)
Type: biochemical
Experimental Conditions: 0-100 μM, 1.5 mM phosphate, 12.5 mM calcium, pH 7.4, 30 min, rt, read-out: Relative Potency (EC50, inhibition of calcium phosphate crystallization)
pEC50: −log10 of the molar value.
Endpoint Label: pEC50

Before answering, review these 2 worked examples.
O=P(O)(O)OC1C(OCCC2CC2)C(OP(=O)(O)O)C(OP(=O)(O)O)C(OP(=O)(O)O)C1OCCC1CC1 (stereo not drawn)	≥ 5.30
COCc1cn(CCCCCCOC2C(OP(=O)(O)O)C(OCCCCCCn3cc(C(=O)O)nn3)C(OP(=O)(O)O)C(OP(=O)(O)O)C2OP(=O)(O)O)nn1 (stereo not drawn)	≥ 5.30

Q: Any idea what its pEC50 is? The compound is COCCCCCOC1C(OP(O)(O)=S)C(OCCCCCOC)C(OP(O)(O)=S)C(OP(O)(O)=S)C1OP(O)(O)=S (stereo not drawn)
Result: < 5.00
